Data credit: paper PMC9000801

# TARGET_SYSTEM: human GSK-3β (Hs GSK-3β) (Homo sapiens)
# Sequence (P49841 whole entry): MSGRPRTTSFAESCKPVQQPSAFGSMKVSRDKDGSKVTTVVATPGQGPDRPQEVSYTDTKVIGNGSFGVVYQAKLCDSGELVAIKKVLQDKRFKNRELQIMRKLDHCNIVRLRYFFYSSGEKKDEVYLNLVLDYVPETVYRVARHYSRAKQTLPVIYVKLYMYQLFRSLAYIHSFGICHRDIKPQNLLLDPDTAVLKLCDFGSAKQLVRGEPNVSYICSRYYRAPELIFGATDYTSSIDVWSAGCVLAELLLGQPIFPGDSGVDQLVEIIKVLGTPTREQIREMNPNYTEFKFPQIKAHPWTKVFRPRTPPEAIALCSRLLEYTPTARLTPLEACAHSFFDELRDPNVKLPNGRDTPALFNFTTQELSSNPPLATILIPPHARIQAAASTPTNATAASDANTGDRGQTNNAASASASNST
# ASSAY_SUMMARY: Kinase-Glo Plus luminescent kinase assay with recombinant enzyme; Michaelis-Menten and Lineweaver-Burk kinetics
REPORTED_PROPERTY: pIC50
For clarity, pIC50 is expressed as the negative log10 of concentration in mol/L.

Request the reported pIC50 associated with CCCCOC(=O)c1ccccc1C(=O)OCCCC [DBP, dibutyl phthalate] 5.70
